assay: Solubility in organic solvents; format: physicochemical; conditions: at 50°C; KMC-113 (alkyl naphthalene compound)
Quantity name: solubility (% by weight) in organic solvents: KMC-113

Compound	Reported value
CCCCN(CCCC)c1ccc2c(c1)Oc1ccc(NCc3ccc(Cl)cc3)cc1C21OC(=O)c2ccccc21 (stereo not drawn) [Compound (D)]	3.80
CCCCN(CCCC)c1ccc2c(c1)Oc1ccc(NCc3cccc(Cl)c3)cc1C21OC(=O)c2ccccc21 (stereo not drawn) [Compound (C)]	4.20

[P] CCN(CC)c1ccc2c(c1)Oc1ccc(NCc3ccccc3)cc1C21OC(=O)c2ccccc21 (stereo not drawn) [Compound (A-1), 2-benzylamino-6-diethylamino fluoran]
[Q] CCCCN(CCCC)c1ccc2c(c1)Oc1ccc(NCc3ccccc3Cl)cc1C21OC(=O)c2ccccc21 (stereo not drawn) [Compound (B)]
[R] CCN(CC)c1ccc2c(c1)Oc1ccc(NCc3ccc(Cl)cc3)cc1C21OC(=O)c2ccccc21 (stereo not drawn) [(A-3)]
[S] CCN(CC)c1ccc2c(c1)Oc1ccc(NCc3ccccc3Cl)cc1C21OC(=O)c2ccccc21 (stereo not drawn) [Compound (A-2)]
Query: Rank by solubility (% by weight) in organic solvents: KMC-113 (largest to smallest). List labels; respect the requested ordering.
Reply: Q, R, S, P
(Q: 3.30 % by weight, R: 1.90 % by weight, S: 1.20 % by weight, P: 0.44 % by weight)
